Assay: Compound stability in rat liver microsomes
Format: in vitro ADME
Conditions: rat liver microsomes 0.5 mg protein/mL, compound 5 μM, NADPH 1.0 mM, pH 7.4, 37° C.; read-out: Rat T1/2
Description: The LC/MS/MS system used in the analysis consists of an Agilent 1200 Series vacuum degasser, binary pump, well-plate autosampler, thermostatted column compartment, the Agilent G6430 Triple Quadrupole Mass Spectrometer with an electrosprayionization (ESI) source. Quantitative analysis was carried out using MRM mode. The parameters for MRM transitions are in the Table A. […] The concentrations of compounds in the incubation mixtures of human or rat liver microsomes were determined by a LC/MS/MS method. […]
# half-life at 5 μM per record follows

Molecule	Observed
Cn1nnc2cc(Nc3ncc(Cl)c(NC4CCN(c5ccc(C#N)nn5)CC4)n3)ccc21	27.8 min
N#Cc1ccc(N2CCC(Nc3nc(Nc4ccn5ccnc5c4)ncc3Cl)CC2)nn1	32.9 min
Cc1nnc2cc(Nc3ncc(Cl)c(NC4CCN(c5ccc(C#N)cn5)CC4)n3)cnn12	45.2 min

As a next step, examine the molecule that follows.
response.value for CC(C)(O)Cc1nc2cc(Nc3ncc(Cl)c(NC4CCN(c5ccc(C#N)nn5)CC4)n3)ccn2n1 (field: half-life at 5 μM) = 65 min

====

The following compounds have recorded IC50 on FLT4 (h) (Homo sapiens, UniProt P35916).
Sequence (P35916 25-1363): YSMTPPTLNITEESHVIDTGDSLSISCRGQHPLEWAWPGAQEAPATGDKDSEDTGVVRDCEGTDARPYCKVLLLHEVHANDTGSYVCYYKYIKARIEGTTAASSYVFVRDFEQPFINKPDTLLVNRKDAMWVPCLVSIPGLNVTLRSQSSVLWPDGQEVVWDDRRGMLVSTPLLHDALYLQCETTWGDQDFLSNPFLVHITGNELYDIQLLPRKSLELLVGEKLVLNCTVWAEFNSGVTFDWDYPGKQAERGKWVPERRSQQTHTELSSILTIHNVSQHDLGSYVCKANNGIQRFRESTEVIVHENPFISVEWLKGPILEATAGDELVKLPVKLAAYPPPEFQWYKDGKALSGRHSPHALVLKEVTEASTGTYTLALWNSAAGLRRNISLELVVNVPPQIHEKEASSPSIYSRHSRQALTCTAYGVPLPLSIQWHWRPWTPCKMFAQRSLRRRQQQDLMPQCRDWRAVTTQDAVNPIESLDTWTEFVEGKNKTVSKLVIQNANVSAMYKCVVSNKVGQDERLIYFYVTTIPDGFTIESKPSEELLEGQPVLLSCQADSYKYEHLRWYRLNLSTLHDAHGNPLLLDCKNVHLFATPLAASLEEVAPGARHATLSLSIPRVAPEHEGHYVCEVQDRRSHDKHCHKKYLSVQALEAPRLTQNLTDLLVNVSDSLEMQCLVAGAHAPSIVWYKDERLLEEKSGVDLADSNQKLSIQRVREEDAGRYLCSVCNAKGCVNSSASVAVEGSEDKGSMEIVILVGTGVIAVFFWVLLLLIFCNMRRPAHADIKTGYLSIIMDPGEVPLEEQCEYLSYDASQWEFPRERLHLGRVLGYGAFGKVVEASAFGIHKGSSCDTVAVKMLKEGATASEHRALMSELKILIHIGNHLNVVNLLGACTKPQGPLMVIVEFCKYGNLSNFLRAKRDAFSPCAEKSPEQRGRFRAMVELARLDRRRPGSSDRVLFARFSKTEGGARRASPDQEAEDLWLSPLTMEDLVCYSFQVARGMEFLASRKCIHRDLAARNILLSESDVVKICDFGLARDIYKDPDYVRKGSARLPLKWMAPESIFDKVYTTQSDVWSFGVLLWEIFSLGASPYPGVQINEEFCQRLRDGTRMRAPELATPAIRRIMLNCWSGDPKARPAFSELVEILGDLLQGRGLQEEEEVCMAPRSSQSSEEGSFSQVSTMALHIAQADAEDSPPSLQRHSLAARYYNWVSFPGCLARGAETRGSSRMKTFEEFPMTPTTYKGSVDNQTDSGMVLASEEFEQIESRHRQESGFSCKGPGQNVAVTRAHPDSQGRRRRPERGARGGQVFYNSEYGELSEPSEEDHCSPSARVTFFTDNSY
Numbers only; they are read as nM.

See these solved cases before continuing.
Compound	Test Target	Measured Property	Observed
CC(C)(O)Cc1nc2ccc(Nc3ncc(Cl)c(NC4CCN(c5ccc(C#N)cn5)CC4)n3)cn2n1 [Example 67]	FLT4 (h) (Homo sapiens, UniProt P35916)	IC50	113
CC(O)Cn1cnc2cc(Nc3ncc(Cl)c(NC4CCN(c5ccc(C#N)cn5)CC4)n3)ccc21 (stereo not drawn) [Example 61]	FLT4 (h) (Homo sapiens, UniProt P35916)	IC50	20

So the reported IC50 for CC(C)(O)Cn1nnc2cc(Nc3ncc(Cl)c(NC4CCN(c5ccc(C#N)cn5)CC4)n3)ccc21 [Example 69] , on FLT4 (h) (Homo sapiens, UniProt P35916), turned out to be 15

====

# half-life at 5 μM per record follows
test: Compound stability in rat liver microsomes; assay type: in vitro ADME; conditions: rat liver microsomes 0.5 mg protein/mL, compound 5 μM, NADPH 1.0 mM, pH 7.4, 37° C.; read-out: Rat T1/2
Return type: number; implicit unit min.

// solved cases for half-life at 5 μM follow
Compound	Measured Property	Units Label	Observed
CC(C)(O)Cc1cn2ccc(Nc3ncc(Cl)c(NC4CCN(c5ccc(C#N)cn5)CC4)n3)cc2n1 [Example 76]	half-life at 5 μM	min	1.7
CC(C)(O)Cc1cnc2cc(Nc3ncc(Cl)c(NC4CCN(c5ccc(C#N)nn5)CC4)n3)ccn12 [Example 80]	half-life at 5 μM	min	19
CCC1CN(c2ccc(C#N)nn2)CCC1N(C)c1nc(Nc2ccn3c(C)cnc3c2)ncc1Cl (stereo not shown) [Example 11]	half-life at 5 μM	min	5050
CCC1CN(c2ccc(C#N)cn2)CCC1Nc1nc(Nc2ccn3c(C(C)(C)O)nnc3c2)ncc1Cl (stereo not shown) [Example 41]	half-life at 5 μM	min	42.9

For the next question, use this compound.
Briefly, half-life at 5 μM measured for CC(C)(O)c1cn2ccc(Nc3ncc(Cl)c(NC4CCN(c5ccc(C#N)nn5)CC4)n3)cc2n1 [Example 71] : 5.67

Cited source: patent US10683297B2
